Provenance of the data: patent US6410775

Molecular target: ACA-6501 aPL antibody
Assay: competitive ELISA I50; antibody not given, ACA-6501 serum on CL/β2-GPI assumed (Ex. 4B)
Square brackets hold non-standard residues; d marks the D form. Ends that are not written are not given here. Aib = CC(C)(N)C(=O)O
Endpoint: IC50 (µg/mL)
Write the number in µg/mL without appending the unit.

Incoming: Provide one value: measured IC50 of CL[Aib]VLGKLC (not fully specified (bridges); printed as CL-aiB-VLGKLC; cysteine pairing not given here) [3G3 conformational scan 26: CL-aiB-VLGKLC]
Outgoing: 80
